Consider the following compounds; for each one, report its residual activity.
# Test System: MAP3K9 (human)
# Assay Text: radiometric filter-binding kinase assay, Kinase HotSpot
# Study Conditions: compound 0.5 µM; ATP 10 µM
Record the value in %, omitting the unit from your answer.

Retrieve residual activity on MAP3K9 (human); query `CCCC(=O)Oc1ccc2[nH]c(C(=O)c3cc4ccccc4[nH]3)cc2c1`
97.7

Retrieve residual activity on MAP3K9 (human); query `CC(C)N(CCC(=O)c1ccc2ccccc2c1)Cc1ccccc1`
104

Retrieve residual activity on MAP3K9 (human); query CO[C@H]1CC2CC[C@@H](C)[C@@](O)(O2)C(=O)C(=O)N2CCCC[C@H]2C(=O)OC([C@H](C)C[C@@H]2CC[C@@H](O)[C@H](OC)C2)CC(=O)[C@H](C)/C=C(\C)[C@@H](O)[C@@H](OC)C(=O)[C@H](C)C[C@H](C)/C=C/C=C/C=C/1C (stereo partly specified)
87.3

Retrieve residual activity on MAP3K9 (human); query `CC(=O)c1ccc(N2CCOCC2)cc1O`
112

Retrieve residual activity on MAP3K9 (human); query `O=S(=O)(c1cccc2cnccc12)N1CCCNCC1`
94.4

Retrieve residual activity on MAP3K9 (human); query `CCC(=O)Nc1ccc2ncnc(Nc3cccc(Br)c3)c2c1`
92.7

====

# Test System: RPS6KA2 KD1 KD2 (human) (UniProt Q15349)
# Sequence (Q15349 whole entry, looked up): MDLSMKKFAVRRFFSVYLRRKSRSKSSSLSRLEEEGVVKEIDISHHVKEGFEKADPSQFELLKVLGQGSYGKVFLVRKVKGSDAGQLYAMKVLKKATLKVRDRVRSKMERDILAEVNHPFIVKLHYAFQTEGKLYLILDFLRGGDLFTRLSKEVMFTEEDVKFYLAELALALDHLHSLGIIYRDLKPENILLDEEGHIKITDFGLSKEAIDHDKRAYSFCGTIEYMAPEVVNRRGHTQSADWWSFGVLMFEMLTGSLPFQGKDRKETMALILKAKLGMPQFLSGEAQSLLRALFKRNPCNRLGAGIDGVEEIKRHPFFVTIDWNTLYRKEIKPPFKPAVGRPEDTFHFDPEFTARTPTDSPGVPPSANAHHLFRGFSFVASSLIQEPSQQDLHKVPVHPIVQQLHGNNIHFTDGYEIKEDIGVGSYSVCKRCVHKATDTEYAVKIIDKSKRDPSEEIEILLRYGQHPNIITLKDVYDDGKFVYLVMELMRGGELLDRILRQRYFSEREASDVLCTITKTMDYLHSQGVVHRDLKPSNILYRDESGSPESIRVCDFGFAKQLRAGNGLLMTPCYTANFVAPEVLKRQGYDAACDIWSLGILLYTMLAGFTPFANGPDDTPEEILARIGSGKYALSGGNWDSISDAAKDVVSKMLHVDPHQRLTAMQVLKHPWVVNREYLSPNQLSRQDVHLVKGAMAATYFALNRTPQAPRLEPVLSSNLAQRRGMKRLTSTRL
# Assay Text: radiometric filter-binding kinase assay, Kinase HotSpot
# Study Conditions: compound 0.5 µM; ATP 10 µM
Property Label: residual activity (%)
Record the value in %, omitting the unit from your answer.

Identify residual activity associated with the compound `CCN(CC)CCNC(=O)c1c(C)[nH]c(/C=C2\C(=O)Nc3ccc(Cl)cc32)c1C`
10

Identify residual activity associated with the compound `CCCC(=O)Oc1ccc2[nH]c(C(=O)c3cc4ccccc4[nH]3)cc2c1`
85

Identify residual activity associated with the compound `COc1ccc(COc2ccc(Cc3cnc(N)nc3N)cc2OC)cc1`
105

====

# Test System: DYRK3 (human)
# Assay Text: radiometric filter-binding kinase assay, Kinase HotSpot
# Study Conditions: compound 0.5 µM; ATP 10 µM
Property Label: residual activity (%)
Record the value in %, omitting the unit from your answer.

Retrieve residual activity on DYRK3 (human); query `O=C(Nc1cccc(Nc2nccc(Nc3cccc(C(F)(F)F)c3)n2)c1)C1CC1`
101

Retrieve residual activity on DYRK3 (human); query `N#CC(C#N)=C(N)/C(C#N)=C/c1ccc(O)cc1`
97.7

Retrieve residual activity on DYRK3 (human); query `CCOC(=O)c1c(C)[nH]c(/C=C2\C(=O)Nc3ccccc32)c1C`
102

Retrieve residual activity on DYRK3 (human); query `c1ccc(-c2n[nH]cc2-c2ccnc3ccccc23)nc1`
104

Retrieve residual activity on DYRK3 (human); query `O=C1NC(=O)c2c1c1c3ccccc3n3c1c1c2c2ccccc2n1C1CCC3O1`
16.6

Retrieve residual activity on DYRK3 (human); query `CC(=O)c1ccc(N2CCOCC2)cc1O`
93.9

Retrieve residual activity on DYRK3 (human); query `Cc1ccc(S(=O)(=O)/C=C/C#N)cc1`
101

Retrieve residual activity on DYRK3 (human); query `COc1ccc(COc2ccc(Cc3cnc(N)nc3N)cc2OC)cc1`
108

Retrieve residual activity on DYRK3 (human); query `CCN(CC)C(=O)c1ccc(Nc2nc(OCC3CCCCC3)c3nc[nH]c3n2)cc1`
97.6

Retrieve residual activity on DYRK3 (human); query `Nc1ccc2ncnc(NCCc3ccc(Oc4ccccc4)cc3)c2c1`
89.6

Retrieve residual activity on DYRK3 (human); query `CCN(CC)CCNC(=O)c1c(C)[nH]c(/C=C2\C(=O)Nc3ccc(F)cc32)c1C`
58.2
